Assay: in vitro
Type: in vitro ADME
Details: human, plasma
Numbered stars: 1 amine (or outer) side, 2 acyl side, 3 side chain; on linkers, the order of the positions; unused ones are H or OH. Bridge positions count the residues as written; N and C are the ends. Square brackets hold non-standard residues; d marks the D form. Peptide text beside a SMILES is read from it. * marks the point of attachment. X1 = NC(=O)C[C@H](N[*:1])c1cn([C@@H](Cc2ccccc2)C(=O)[*:2])nn1; DOTA = O=C(O)CN1CCN(CC(=O)O)CCN(CC(=O)*)CCN(CC(=O)O)CC1
Parameter remaining at 6 h, 250 nM: see the listing below.

>>> result("C[C@H](NC(=O)CN1CCN(CC(=O)O)CCN(CC(=O)O)CCN(CC(=O)O)CC1)C(=O)NCC(=O)N[C@H]1CSSC[C@@H](C(=O)O)NC(=O)[C@H](CO)NC(=O)[C@H]([C@@H](C)O)NC(=O)[C@H](Cc2ccccc2)NC(=O)[C@H]([C@@H](C)O)NC(=O)[C@H](CCCCN)NC(=O)[C@@H](Cc2c[nH]c3ccccc23)NC(=O)[C@H](Cc2ccccc2)NC(=O)[C@H](Cc2ccccc2)n2cc(nn2)[C@H](CC(N)=O)NC(=O)[C@H](CCCCN)NC1=O [[^111In]In-XG1, metal not drawn] ({DOTA}-AGCK[X1]F[dW]KTFTSC-OH; disulfide 3-13)")
"> 90%"

We now examine a further compound.
remaining at 6 h, 250 nM in this record for C[C@H](NC(=O)CN1CCN(CC(=O)O)CCN(CC(=O)O)CCN(CC(=O)O)CC1)C(=O)NCC(=O)N[C@H]1CSSC[C@@H](C(=O)O)NC(=O)[C@H](CO)NC(=O)[C@H]([C@@H](C)O)NC(=O)[C@H](Cc2ccccc2)NC(=O)[C@H]([C@@H](C)O)NC(=O)[C@H](CCCCN)NC(=O)[C@@H](Cc2c[nH]c3ccccc23)NC(=O)[C@H](Cc2ccccc2)NC(=O)[C@H](Cc2ccccc2)NC(=O)[C@H](CC(N)=O)NC(=O)[C@H](CCCCN)NC1=O [[^111In]In-AT2S, metal not drawn, reference compound] : > 90%

====

Assay: in vivo
Details: male, SCID, mouse, iv, 3 nmol, total radioactivity, wtHEK293 (SST2R-negative) control tumor uptake
Numbered stars: 1 amine (or outer) side, 2 acyl side, 3 side chain; on linkers, the order of the positions; unused ones are H or OH. Bridge positions count the residues as written; N and C are the ends. Square brackets hold non-standard residues; d marks the D form. Peptide text beside a SMILES is read from it. * marks the point of attachment. X1 = NC(=O)C[C@H](N[*:1])c1cn([C@@H](Cc2ccccc2)C(=O)[*:2])nn1; DOTA = O=C(O)CN1CCN(CC(=O)O)CCN(CC(=O)*)CCN(CC(=O)O)CC1
measured parameter: tissue uptake at 4 h (%ID/g)
# number only, unit %ID/g dropped from output

The molecule C[C@H](NC(=O)CN1CCN(CC(=O)O)CCN(CC(=O)O)CCN(CC(=O)O)CC1)C(=O)NCC(=O)N[C@H]1CSSC[C@@H](C(=O)O)NC(=O)[C@H](CO)NC(=O)[C@H]([C@@H](C)O)NC(=O)[C@H](Cc2ccccc2)NC(=O)[C@H]([C@@H](C)O)NC(=O)[C@H](CCCCN)NC(=O)[C@@H](Cc2c[nH]c3ccccc23)NC(=O)[C@H](Cc2ccccc2)NC(=O)[C@H](Cc2ccccc2)n2cc(nn2)[C@H](CC(N)=O)NC(=O)[C@H](CCCCN)NC1=O [[^111In]In-XG1, metal not drawn] ({DOTA}-AGCK[X1]F[dW]KTFTSC-OH; disulfide 3-13) showed tissue uptake at 4 h equal to 0.56

====

Assay: in vivo
Settings: male, SCID, mouse, iv, 3 nmol, total radioactivity, HEK293-hSST2R tumor uptake
Numbered stars: 1 amine (or outer) side, 2 acyl side, 3 side chain; on linkers, the order of the positions; unused ones are H or OH. Bridge positions count the residues as written; N and C are the ends. Square brackets hold non-standard residues; d marks the D form. Peptide text beside a SMILES is read from it. * marks the point of attachment. X1 = NC(=O)C[C@H](N[*:1])c1cn([C@@H](Cc2ccccc2)C(=O)[*:2])nn1; DOTA = O=C(O)CN1CCN(CC(=O)O)CCN(CC(=O)*)CCN(CC(=O)O)CC1
measured parameter: tissue uptake at 4 h (%ID/g)
Write the answer as a number in %ID/g, unit excluded.

The compound listed as C[C@H](NC(=O)CN1CCN(CC(=O)O)CCN(CC(=O)O)CCN(CC(=O)O)CC1)C(=O)NCC(=O)N[C@H]1CSSC[C@@H](C(=O)O)NC(=O)[C@H](CO)NC(=O)[C@H]([C@@H](C)O)NC(=O)[C@H](Cc2ccccc2)NC(=O)[C@H]([C@@H](C)O)NC(=O)[C@H](CCCCN)NC(=O)[C@@H](Cc2c[nH]c3ccccc23)NC(=O)[C@H](Cc2ccccc2)NC(=O)[C@H](Cc2ccccc2)n2cc(nn2)[C@H](CC(N)=O)NC(=O)[C@H](CCCCN)NC1=O [[^111In]In-XG1, metal not drawn] ({DOTA}-AGCK[X1]F[dW]KTFTSC-OH; disulfide 3-13) shows tissue uptake at 4 h equal to 1.61

Origin of values: paper PMC10976246
